Consider the following binders; for each one, report its pIC50.
molecular target: T1, rh integrin α4β7 (R&D Systems #5397-A30) (human, UniProt P13612 34-970; P26010 20-723); experiment: competition ELISA vs MAdCAM-1
T1 construct: bought; coated on a nickel coated plate; also called immobilized α4β7; immobilized α4β7 integrin protein
Bridge positions count the residues as written; N and C are the ends. Square brackets hold non-standard residues; d marks the D form. NMeR = CN[C@@H](CCCNC(=N)N)C(=O)O; NMeK = CN[C@@H](CCCCN)C(=O)O; Pen = CC(C)(S)[C@H](N)C(=O)O; dNMeK = CN[C@H](CCCCN)C(=O)O
FYI, pIC50 means -log10 of a concentration in mol per litre.

Endpoint output: pIC50 of Ac-[Pen][NMeR]SDTL[Pen]WE[NMeK]-NH2 (disulfide 1-7; not fully specified; printed as [Ac-Pen-(N-Me-Arg)-Ser-Asp-Thr-Leu-Pen-Trp-Glu-(N-Me-Lys)-NH2]2-DIG; also: homodimer: two identical subunits joined by DIG linker at the Lys10 side chains, each subunit has its own Pen1-Pen7 disulfide, also called peptide 215) [SEQ ID NO: 215] . Value?
8.66

Endpoint output: pIC50 of Ac-[Pen][NMeR]SDTL[Pen]WE[dNMeK]-NH2 (disulfide 1-7; not fully specified (residue 10); printed as (Ac Pen N-Me-R S D T L Pen W E N-Me-k NH2)2 DIG, disulfide Pen-Pen; also: dimer, two subunits joined by DIG linker, also called peptide 214) [SEQ ID NO: 214] . Value?
8.39

Endpoint output: pIC50 of Ac-CRSDTLCGE-NH2 (disulfide 1-7 (inferred), also called peptide 194) [SEQ ID NO: 194] . Value?
7.01
